Target: Large T antigen (Simian virus 40);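 note: Confirmatory-stage PubChem screen for compounds that inhibit SV40 T antigen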
Sequence (P03070 whole entry): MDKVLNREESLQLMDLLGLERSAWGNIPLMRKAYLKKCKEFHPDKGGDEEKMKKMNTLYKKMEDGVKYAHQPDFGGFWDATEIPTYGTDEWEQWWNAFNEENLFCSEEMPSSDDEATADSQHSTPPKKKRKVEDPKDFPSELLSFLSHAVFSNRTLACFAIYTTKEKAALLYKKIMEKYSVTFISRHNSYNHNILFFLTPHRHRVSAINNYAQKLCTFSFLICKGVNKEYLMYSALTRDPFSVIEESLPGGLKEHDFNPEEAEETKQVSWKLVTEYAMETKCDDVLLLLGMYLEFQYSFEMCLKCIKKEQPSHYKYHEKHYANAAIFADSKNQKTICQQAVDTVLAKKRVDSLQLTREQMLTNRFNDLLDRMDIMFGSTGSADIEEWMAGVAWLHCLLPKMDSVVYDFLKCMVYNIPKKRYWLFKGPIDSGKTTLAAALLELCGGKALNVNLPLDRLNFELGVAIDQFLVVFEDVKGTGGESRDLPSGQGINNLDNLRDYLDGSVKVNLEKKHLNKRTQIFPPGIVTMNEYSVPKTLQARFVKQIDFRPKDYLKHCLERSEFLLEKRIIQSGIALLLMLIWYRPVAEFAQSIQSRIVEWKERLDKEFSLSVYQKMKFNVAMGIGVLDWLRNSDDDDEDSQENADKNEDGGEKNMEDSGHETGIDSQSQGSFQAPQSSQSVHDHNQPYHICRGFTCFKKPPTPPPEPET
Assay type: functional, Betapolyomavirus macacae
Calls of active or inactive are those of the source.

compound	IC50
Cc1ccc(N2CSC3=C(C#N)C(c4cccs4)CC(=O)N3C2)cc1 (centres undefined)	> 100 µM (active)
CN(C)c1ccc(NC(N)=S)cc1	7.29 µM (active)
COc1cc(/C=N/NC(=O)C(=O)NCC2CCCO2)ccc1O (centres undefined)	11.7 µM (active)
O=S1(=O)N=C(Nc2ccc(O)cc2)c2ccccc21	5.09 µM (active)

* * *

Biological target: Methionyl-tRNA synthetase, putative (Trypanosoma brucei brucei);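 note: Read-out by fluorescence polarization, run as a confirmatory high-throughput counterscreen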;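 note: potency of MetRS inhibitors measured by reduced AMP formation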
Sequence (Q38C91 whole entry): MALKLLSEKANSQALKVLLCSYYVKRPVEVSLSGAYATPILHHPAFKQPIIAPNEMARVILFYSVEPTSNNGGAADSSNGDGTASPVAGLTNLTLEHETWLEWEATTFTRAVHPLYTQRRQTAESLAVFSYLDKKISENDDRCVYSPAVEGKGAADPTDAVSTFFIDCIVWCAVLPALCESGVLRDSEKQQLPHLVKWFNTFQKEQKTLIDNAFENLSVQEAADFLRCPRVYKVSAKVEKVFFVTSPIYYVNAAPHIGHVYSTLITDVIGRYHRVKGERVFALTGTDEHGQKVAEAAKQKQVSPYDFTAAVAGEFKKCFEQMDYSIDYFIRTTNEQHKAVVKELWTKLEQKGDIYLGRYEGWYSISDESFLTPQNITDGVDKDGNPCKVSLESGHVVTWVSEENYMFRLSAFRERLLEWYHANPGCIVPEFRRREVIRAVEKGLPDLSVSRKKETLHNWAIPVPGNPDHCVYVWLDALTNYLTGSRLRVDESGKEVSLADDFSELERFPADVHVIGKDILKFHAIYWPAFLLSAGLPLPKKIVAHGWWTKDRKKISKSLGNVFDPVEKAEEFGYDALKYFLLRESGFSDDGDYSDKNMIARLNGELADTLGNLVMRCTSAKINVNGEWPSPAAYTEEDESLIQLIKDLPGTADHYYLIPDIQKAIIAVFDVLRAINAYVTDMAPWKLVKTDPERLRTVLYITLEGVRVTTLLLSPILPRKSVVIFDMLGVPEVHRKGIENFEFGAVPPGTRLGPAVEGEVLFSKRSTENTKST
Format: functional, Trypanosoma brucei brucei strain 927/4 GUTat10.1
Calls of active or inactive are those of the source.
Outcomes: 1 for active, -1 for inactive

molecule	group-label
Cc1ccc(NC(=O)CN(C)C(=O)CCSc2ccc(F)cc2)cc1	1
NC(Cc1ccc(Cl)cc1)c1csc(NC(=O)Nc2ccccc2)n1 (stereo not given)	1
CC(C)(Oc1ccc(Cl)cc1)C(=O)OCc1nc2ccsc2c(=O)[nH]1	-1
C/C(=C1/SC(=S)N(CCC(=O)O)C1=O)c1ccc(O)cc1	-1
O=C(NCc1cc(Cl)cc(Cl)c1)c1ccc2[nH]c([C@H]3C[C@H](O)[C@@H](CO)O3)nc2c1	-1

* * *

Molecular target: 26S proteasome non-ATPase regulatory subunit 14 (Homo sapiens)
Sequence (O00487 whole entry): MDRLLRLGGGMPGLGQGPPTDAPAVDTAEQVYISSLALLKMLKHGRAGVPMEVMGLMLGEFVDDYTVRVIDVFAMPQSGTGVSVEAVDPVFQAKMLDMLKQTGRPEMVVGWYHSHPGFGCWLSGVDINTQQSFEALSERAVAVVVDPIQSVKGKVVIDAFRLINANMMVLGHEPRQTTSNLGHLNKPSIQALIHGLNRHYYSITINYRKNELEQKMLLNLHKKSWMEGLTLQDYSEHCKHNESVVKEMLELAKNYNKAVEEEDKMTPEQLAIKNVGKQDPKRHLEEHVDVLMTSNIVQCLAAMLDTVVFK
Experiment: inhibition of proteasome subunit RPN11 – biochemical, fluorescence polarization, uHTS hits, confirmation (AID 602368)
Format: functional
Calls of active or inactive are those of the source.
test-readout: IC50

structure	test-readout	experimental-result
COc1cc(/C=C2/SC(=S)N(CC(=O)Nc3nc4ccccc4s3)C2=O)cc(OC)c1OC	IC50	20.2 µM (active)
CCOc1ccc(N2C(=O)/C(=C/Nc3ccnn3Cc3ccncc3)c3ccccc3C2=O)cc1	IC50	23.9 µM (active)
CCCCn1c(/N=C/c2ccc(N(C)C)cc2)nc2ccccc21	IC50	5.14 µM (active)
COc1cccc(/C=N/NC(=O)c2[nH]c(C)c(C(=O)N/N=C/c3cccc(OC)c3)c2C)c1	IC50	1.41 µM (active)
COc1ccc(/C=C2/SC(=S)N(CCCC(=O)Nc3ccc(O)cc3)C2=O)cc1OC	IC50	25.2 µM (active)

* * *

Each entry below carries its recorded EC50.
Assay: NIH3T3 cell viability loss – ATP luminescence, mouse fibroblasts, counter-screen, dose response (AID 2010);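 note: cells exposed to compound for about 90 hours before reading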
Assay type: functional, cell-based
Calls of active or inactive are those of the source.

compound	EC50
CC(NC(=O)c1cccnc1)C(c1cccs1)N1CCOCC1 (stereo not given)	> 60 µM (not active)
O=C(Nc1ccc(S(=O)(=O)N2CCOCC2)cc1)c1ccc([N+](=O)[O-])s1	42.8 µM (active)
CN(c1cccc(NC(=O)CN(c2ccc(C34CC5CC(CC(C5)C3)C4)cc2)S(C)(=O)=O)c1)S(C)(=O)=O	7.81 µM (active)
COc1cc(OC)c(OC)cc1CN1CCCC(C(=O)c2ccccc2SC)C1 (stereo not given)	> 60 µM (not active)
Cc1ccc(-n2c(SCC(=O)N3c4ccccc4Sc4ccccc43)nnc2-c2ccncc2)cc1	> 60 µM (not active)
CCOC(=O)c1c(NC(=O)c2c(N)n(CCCOC)c3nc4ccccc4nc23)sc2c1CCCC2	> 60 µM (not active)
CN=C(S)N1N=C(c2ccc(Br)cc2)CC1c1ccc(Br)cc1 (stereo not given)	> 60 µM (not active)
Cc1cccc(C)c1N=C(S)N(Cc1ccccc1)Cc1cccnc1	> 60 µM (not active)
CCOC(=O)c1c(NC(=O)Cc2ccccc2)sc2c1CCN(C)C2	> 60 µM (not active)
COc1cc2c(cc1OC)C(c1cc3cccc(C)c3nc1O)N(C(=O)c1ccco1)CC2 (stereo not given)	10.5 µM (active)

Where do the numbers come from? From ChEMBL document CHEMBL1201862.
